Measured logD values are reported for all entries that follow.
assay: Compound was evaluated for distribution coefficient; assay type: physicochemical; conditions: octanol/water
Please reply with the number alone, leaving off any unit.

| compound | logD |
| --- | --- |
| COc1cc(C[C@@H]2NCCc3cc(O)c(O)cc32)cc(OC)c1OC | 1.79 |

For the next question, use this compound.
What the record says about CC(C)NCC(O)c1ccc(Cl)c(Cl)c1 (configuration not stated) : logD is 1.26

----------
Measured logP values are reported for all entries that follow.
experiment: Partition coefficient (logP); type: physicochemical; conditions: octanol/water

| molecule | logP |
| --- | --- |
| COc1cc(C[C@@H]2NCCc3cc(O)c(O)cc32)cc(OC)c1OC | 2.23 |

For the next question, use this molecule.
What the record says about CC(C)NCC(O)c1ccc(Cl)c(Cl)c1 (configuration not stated) : logP is 2.55

----------
assay: Compound was evaluated for pKa by titration of the compounds in 1:2 methyl alcohol and water; assay type: physicochemical; details: read-out: pKa app
measurement_label: pKa
Please reply with the number alone, leaving off any unit.

What the record says about CC(C)NCC(O)c1ccc(Cl)c(Cl)c1 (stereo unspecified) : pKa is 8.7
